target: VEGF receptor KDR (Homo sapiens, UniProt P35968); construct: made in house; host or cells: Sf9 cells (Spodoptera frugiperda), recombinant baculovirus; assay: In vitro receptor tyrosine kinase assay, VEGF receptor KDR (DELFIA); format: biochemical; settings: GST-VEGFR2 806-1356, ATP 0.6 uM; read-out: VEGFR IC50
Sequence (P35968 806-1356): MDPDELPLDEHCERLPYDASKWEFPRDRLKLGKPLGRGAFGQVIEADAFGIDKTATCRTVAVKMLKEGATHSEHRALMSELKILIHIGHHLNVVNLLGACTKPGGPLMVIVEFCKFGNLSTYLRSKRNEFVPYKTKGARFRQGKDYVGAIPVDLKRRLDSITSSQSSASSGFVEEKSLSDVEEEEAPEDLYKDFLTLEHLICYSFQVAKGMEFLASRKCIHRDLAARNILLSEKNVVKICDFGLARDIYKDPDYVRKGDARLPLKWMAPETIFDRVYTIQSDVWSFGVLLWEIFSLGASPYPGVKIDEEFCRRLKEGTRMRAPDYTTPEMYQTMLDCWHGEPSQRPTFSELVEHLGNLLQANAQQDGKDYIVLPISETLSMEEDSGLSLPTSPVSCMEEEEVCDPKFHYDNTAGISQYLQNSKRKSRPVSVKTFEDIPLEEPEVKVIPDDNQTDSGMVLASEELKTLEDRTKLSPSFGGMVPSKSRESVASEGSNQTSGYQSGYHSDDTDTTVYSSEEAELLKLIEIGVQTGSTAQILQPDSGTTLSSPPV
assay.metric: IC50

Below, each entry is followed by its recorded IC50 result.
- CN(C)CC(=O)N1CC=C(c2cc3nccc(Oc4ccc(NC(=O)N5CCN(c6ccccc6)C5=O)cc4F)c3s2)CC1: < 250 nM
- Cn1ccnc1-c1cc2nccc(Oc3ccc(NC(=O)c4cnn(-c5ccccc5)c4C(F)(F)F)cc3F)c2s1: > 1000 nM

--- query ---
Identify measured IC50 associated with CS(=O)(=O)c1ccc(-c2cc3nccc(Oc4ccc(NC(=O)N5CCN(c6ccccc6)C5=O)cc4F)c3s2)cc1
250 to 500 nM
